assay: qHTS profiling for inhibitors of Plasmodium falciparum proliferation (AID 504749); note: potency is the fitted concentration of half-maximal effect; nearly all actives have a fitted effect of over 60% in size; conditions: P. falciparum in erythrocytes, SYBR Green DNA, 72 h; parasite line B
Records with an inconclusive call do not appear. Calls of active or inactive are those of the source. Calls come from the whole dose curve; as a rule, active = well fitted inhibition curve with a large enough effect; inconclusive = small, poorly fitted or top-dose-only effect; inactive = flat fitted curve, though single readings scatter.
Parameter measured: Potency

Sample answers from the record:
CO[C@@H](COC(N)=O)C1=C(N2CC2)C(=O)C(C)=C(N2CC2)C1=O: 1.41 µM (active)
C=CC1CN2CCC1CC2C(OC(=O)OCC)c1ccnc2ccc(OC)cc12 (centres undefined): 2.24 µM (active)
O=[As]O[As]=O (centres undefined): 8.91 µM (active)

Okay, next one:
## Input Which value of Potency has been reported for O=C1C=C2C=CC3C[C@@]2(O1)C1CCCCN31 (some centres undefined) in the records?
## Output 8.91 µM (active)

###

molecular target: Cytochrome P450 2D6 (Homo sapiens); assay: qHTS Assay for Inhibitors and Substrates of Cytochrome P450 2D6 (AID 891); conditions: recombinant CYP2D6, luciferin-ME EGE luminescence; series mostly up to 57.1 µM; note: nearly all actives have a fitted effect of over 60% in size
Results filed as inconclusive are left out. Active and inactive are the calls of the source. The call rests on the fitted dose curve; in most records, active means well fitted inhibition curve with a large enough effect; inconclusive means small, poorly fitted or top-dose-only effect; inactive means no such curve, though single readings can be large or run the other way.
Your response should consist of one outcome taken from True = active, False = inactive

C[N+]1=Cc2cc3c(cc2CC1)OCO3: True
N#Cc1ccc(CN2CC[C@@]3(CCCN(C(=O)Oc4ccccc4)C3)C2)cc1: True
CCCN(C/C=C\I)[C@@H]1CCc2ccc(O)cc2C1: True
CN1[C@@H](C[C@@H](O)c2ccccc2)CCC[C@@H]1C[C@H](O)c1ccccc1: True
CC[C@H]1CN2CC[C@@H]1C[C@H]2[C@@H](O)c1ccnc2ccc(OC)cc12: True
c1ccc(N2CCC3(CCNCC3)CC2)nc1: True
CC(C)CN1CC2(CCN(C(=O)c3ccncc3)CC2)C1: True
Clc1ccc([C@@H](OCCN2CCCCC2)c2ccccc2)cc1: True
c1cncc([C@H]2CCCCN2)c1: True
CC[C@@H]1[C@@H]2C[C@H]3[C@H]4N(C)c5ccccc5[C@@]45C[C@@H]([C@@H]2[C@@H]5O)N3[C@H]1O: True

## Input Any idea what this test logged for COc1cc2c(cc1O)[C@H]1Cc3ccc(OC)c(O)c3CN1CC2 ?
## Output True

## Input Same question for c1cnc(N2CC[C@@]3(CCCNC3)C2)nc1 please.
## Output True

## Input // same read-out, input: O=C1C=C2C=C[C@H]3C[C@@]2(O1)[C@H]1CCCCN31
## Output False

## Input Follow-up item: CC(C)CN1CC[C@@]2(CCCN(C(=O)Oc3ccccc3)C2)C1
## Output True

## Input Same question, CC(C)CN1CCC2(CC1)CCN(S(C)(=O)=O)CC2 this time
## Output True

###

assay: SDT Cancer Cell Toxicity qHTS against the NCATS CANVASS Library (AID 1347365); settings: SDT dog glioma viability, ATP luminescence, 72 h; series mostly up to 46.1 µM; note: nearly all actives have a fitted effect of over 60% in size
Records with an inconclusive call do not appear. Calls of active or inactive are those of the source. The call rests on the fitted dose curve; in most records, active means well fitted cell-killing curve with a large enough effect; inconclusive means small, poorly fitted or top-dose-only effect; inactive means flat fitted curve, though single readings scatter.
Please answer using one outcome listed in class 1 (active), class 0 (inactive)

Recorded results for 7 compounds are shown here.
C[N+](C)(C)CCc1c[nH]c2ccccc12: class 0
C[C@]12CCC3[C@@H](CC[C@@H]4C[C@@H](O)CC[C@]34CO)[C@@]1(O)CC[C@@H]2C1=CC(=O)OC1 (stereo partly drawn): class 1
C/C=C1/CN2C3CC1C1=CCC(=O)N4c5ccccc5[C@@]3(C[C@@H]2C2=C[C@H]3C5CC6N(CC[C@@]67c6ccccc6N(C2=O)[C@@H]37)C/C5=C/C)[C@H]14 (stereo partly drawn): class 1
CC[C@@H]1CN2CCc3c([nH]c4cccc(OC)c34)[C@@H]2C[C@@H]1/C(=C\OC)C(=O)OC: class 1
CO[C@@H](/C=C/CC/C=C/C(=O)O)[C@@H](O)[C@H](C)/C=C(\C)[C@H](O)[C@H](C)C(=O)CCCC1CC(=O)NC(=O)C1: class 0
O[C@H]1C=C[C@@]23CCN(Cc4cc5c(cc42)OCO5)[C@@H]3C1: class 0
C/C=C1/CN2CC[C@]34C(=C(C(=O)OC)[C@H]1C[C@H]23)Nc1ccccc14: class 1

Field: next compound
## Input Outcome logged for CO[C@@]12c3c(C)cc(O)c4c(=O)occ(c34)C(=O)[C@@H]1[C@]13COC(=O)c4c(O)cc(C)c(c41)C(=O)[C@H]2[C@@H]3OC(C)=O in this assay:
## Output class 0

###

assay: Cell Viability - LYMP2-010 (AID 981); conditions: LYMP2-010 lymphoblastoid cell viability, qHTS; series mostly up to 92.2 µM;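 note: cells exposed to compound for 24 hours at 37 °C; nearly all actives have a fitted effect of over 55% in size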
Records with an inconclusive call do not appear. Calls of active or inactive are those of the source. Calls come from the whole dose curve; as a rule, active = well fitted cell-killing curve with a large enough effect; inconclusive = small, poorly fitted or top-dose-only effect; inactive = flat fitted curve, though single readings scatter.
Returns: one label drawn from t (active), f (inactive)

Use the examples below as a reference point.
COP(=S)(OC)Oc1ccc([N+](=O)[O-])cc1: f
COc1ccc(C=O)cc1OC: f
C[C@]12CC[C@H]3[C@@H](CCC4=CC(=O)CC[C@@]43C)[C@@H]1CC[C@@H]2O: f
C=CCOC(=O)c1ccccc1N: f
c1ccc(OP(Oc2ccccc2)Oc2ccccc2)cc1: f
c1ccc2c(c1)CCCC2: f
Clc1nc(Cl)nc(Cl)n1: f
O=NN(CCO)CCO: f

## Input Write down the call the test reported for this compound. Item: O=C(Cl)/C=C/C(=O)Cl
## Output f

## Input Next entry: CCOCN(C(=O)CCl)c1c(C)cccc1CC
## Output t

## Input Now give it for COC1=CC(=O)O[C@@H](/C=C/c2ccc3c(c2)OCO3)C1 too.
## Output f

###

assay: VSVG counterscreen qHTS to identify inhibitors of SARS-CoV-2 cell entry (AID 1645847); settings: VSV-G pseudotyped particle entry, luciferase; series mostly up to 57.2 µM; note: nearly all actives have a fitted effect of over 65% in size
Records with an inconclusive call do not appear. Calls of active or inactive are those of the source. Calls follow the shape of the full dose curve. Square brackets hold non-standard residues; d marks the D form. Peptide text beside a SMILES is read from it. ξ: configuration not given here. d(hArg(Et2)) = CCN=C(NCC)NCCCC[C@@H](N)C(=O)O; hArg(Et2) = CCN=C(NCC)NCCCC[C@H](N)C(=O)O; Phe(4-Cl) = N[C@@H](Cc1ccc(Cl)cc1)C(=O)O; ξ2Nal = NC(Cc1ccc2ccccc2c1)C(=O)O; 3Pal = N[C@@H](Cc1cccnc1)C(=O)O; ξP = O=C(O)C1CCCN1
Hi! Could you answer with just one of these? active, inactive

Sample answers from the record:
COC1CC(C(=O)c2ccc3c(N)ncc(-c4ccc(-c5cnn(C)c5)cc4)c3n2)C1 (configuration not stated): inactive
CC[C@]12C=CCN3CC[C@@]4(c5cc([C@@]6(C(=O)OC)C[C@H]7C[C@@H](C(C)(F)F)CN(Cc8c6[nH]c6ccccc86)C7)c(OC)cc5N(C)[C@H]4[C@@](O)(C(=O)OC)[C@@H]1OC(C)=O)[C@@H]32: active
Nc1nc2c(c(=O)[nH]1)N1CN(c3ccc(C(=O)N[C@@H](CCC(=O)O)C(=O)O)cc3)CC1CN2 (some centres not stated): active
C[C@@]12C(=O)OC(=O)[C@]1(C)[C@H]1CC[C@@H]2O1: active
OC1CCC(Oc2cccc3cnc(Nc4ccc5nc[nH]c5c4)nc23)CC1 (configuration not stated): active

## Input I would be grateful if you could indicate the recorded call for CCNC(=NCCCC[C@H](NC(=O)[C@H](CC(C)C)NC(=O)[C@@H](CCCCN=C(NCC)NCC)NC(=O)[C@@H](Cc1ccc(O)cc1)NC(=O)[C@@H](CO)NC(=O)[C@H](Cc1cccnc1)NC(=O)[C@H](Cc1ccc(Cl)cc1)NC(=O)C(Cc1ccc2ccccc2c1)NC(C)=O)C(=O)N1CCCC1C(=O)N[C@H](C)C(N)=O)NCC (some centres not stated) (Ac-[ξ2Nal][Phe(4-Cl)][3Pal][dS][dY][d(hArg(Et2))]L[hArg(Et2)][ξP][dA]-NH2) .
## Output active

## Input Can you handle CO[C@@H]1[C@H](C)OC(O[C@H]2CC(Oc3cc4cc5c(c(O)c4c(O)c3C)C(=O)[C@@H](OC3C[C@@H](OC4C[C@H](OC6C[C@](C)(O)[C@@H](OC(C)=O)[C@H](C)O6)[C@@H](O)[C@H](C)O4)[C@H](O)[C@@H](C)O3)[C@H]([C@@H](OC)C(=O)[C@@H](O)[C@H](C)O)C5)O[C@@H](C)[C@H]2OC(C)=O)C[C@@H]1O (some centres not stated) next?
## Output active

## Input Follow-up entry: CO[C@H](C(=O)[C@@H](O)[C@@H](C)O)C1Cc2cc3cc(O[C@H]4C[C@@H](O[C@H]5C[C@@H](O)[C@H](O)[C@@H](C)O5)[C@@H](O)[C@@H](C)O4)c(C)c(O)c3c(O)c2C(=O)[C@H]1O[C@H]1C[C@@H](O[C@H]2C[C@@H](O[C@H]3C[C@](C)(O)[C@H](O)[C@@H](C)O3)[C@H](O)[C@@H](C)O2)[C@H](O)[C@@H](C)O1 (some centres not stated)
## Output active

## Input For O1[As]2O[As]1O2 then?
## Output active

## Input Item: COc1cc(OC)c(/C=C/S(=O)(=O)Cc2ccc(OC)c(OP(=O)(O)O)c2)c(OC)c1
## Output active

## Input Request: CN[C@H]1CN(c2ccc3c(=O)c(C(=O)O)cn(-c4nccs4)c3n2)C[C@@H]1OC
## Output active

## Input Further, for O=C(O)c1ccc(-c2c[nH]c3ncc(-c4ccccc4)cc23)cc1C1CCCC1 ?
## Output active
